System: Acinetobacter baumannii
Test: Antibacterial activity against multidrug-resistant Acinetobacter baumannii 06-74 isolate by CLSI microdilution test
Format: functional
Let's look at some compounds and their measured MIC.

Use these answered entries as a reference point.
{"compound": "O=C1CN(/N=C/c2ccc([N+](=O)[O-])o2)C(=O)N1", "MIC": "≥ 512 µg/mL"}
{"compound": "C[C@@H](O)[C@H]1C(=O)N2C(C(=O)O)=C(SCCNC=N)C[C@H]12 [IMIPENEM ANHYDROUS]", "MIC": "≤ 1 µg/mL"}
{"compound": "NCC[C@H](O)C(=O)N[C@@H]1C[C@H](N)[C@@H](O[C@H]2O[C@H](CN)[C@@H](O)[C@H](O)[C@H]2O)[C@H](O)[C@H]1O[C@H]1O[C@H](CO)[C@@H](O)[C@H](N)[C@H]1O", "MIC": "≤ 2 µg/mL"}

Okay, now this compound:
Qu. Retrieve MIC on Acinetobacter baumannii; query CC1(C)S[C@@H]2[C@H](NC(=O)[C@H](N)c3ccccc3)C(=O)N2[C@H]1C(=O)O
Ans. ≥ 32 µg/mL
